ASSAY_SYSTEM: T1, human S100A4 dimer (Homo sapiens, UniProt P26447 1-101)
T1 construct: In the SPR it was captured on an anti-His surface, so it carried a His tag; also called recombinant human S100A4 dimer
T1 sequence (P26447 whole entry, one chain of several): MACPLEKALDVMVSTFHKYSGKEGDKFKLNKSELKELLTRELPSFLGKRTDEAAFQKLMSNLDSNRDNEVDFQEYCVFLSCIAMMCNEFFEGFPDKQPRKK
RUN_DESCRIPTION: SPR, Biacore T200, 25 C; S100A4 captured via anti-His, antibody as analyte (0.78-200 nM), 1:1 fit
Protocol: Quantitative, kinetic analysis of the interactions between 14 humanized antibodies and 2 control antibodies with the human S100A4 dimer were performed using surface plasmon resonance (SPR). The analysis was performed using a Biacore T200 instrument, at 25° C. analysis temperature, at a flow rate of 50 μl/min for quantitative kinetic interaction analyses.
Measured koff by item
Numeric only. Scale: s⁻¹

Before answering, review these 2 worked examples.
VH1_H40Phe VL3 (antibody, V domains shown, Humanized antibody; also called VH1_40Phe:VL3; Phe40) VH: QVQLQESGPGLVKPSQTLSLTCTVSGDSFTNDYYWNWIRQFPGKGLEWIGHIGYGGNINYNPSLKNRLSMSRDTSKNQFSLKLSSVTAADTAVYYCTRESFYDGYPFDYWGQGTLVTVSS VL: DIQMTQSPSSLSASVGDRVTITCRASQDIRNYLNWYQQKPGKAPKLLLYYTSRLHSGVPSRFSGSGSGTDYTLTISSLQPEDFATYYCQQGNSLPRTFGGGTKVEIK : 0.000576
VH1 VL0 (antibody, V domains shown) VH: QVQLQESGPGLVKPSQTLSLTCTVSGDSFTNDYYWNWIRQHPGKGLEWIGHIGYGGNINYNPSLKNRLSMSRDTSKNQFSLKLSSVTAADTAVYYCTRESFYDGYPFDYWGQGTLVTVSS VL: DIQMTQTTSSLSASLGDRVTISCRASQDIRNYLNWYQQRPGGTLKLLIYYTSRLHSGVPSRFSGSGSGTDYSLTISNLEQEDIATYFCQQGNSLPRTFGGGTKLEIK : 0.000361

Q: // returns reported koff for input VH1_H43Ser VL3 (antibody, V domains shown) VH: QVQLQESGPGLVKPSQTLSLTCTVSGDSFTNDYYWNWIRQHPGSGLEWIGHIGYGGNINYNPSLKNRLSMSRDTSKNQFSLKLSSVTAADTAVYYCTRESFYDGYPFDYWGQGTLVTVSS VL: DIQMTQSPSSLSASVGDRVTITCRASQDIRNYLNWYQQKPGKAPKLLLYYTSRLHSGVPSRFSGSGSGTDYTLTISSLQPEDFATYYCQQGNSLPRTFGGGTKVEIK
Ans: 0.000679
